As a worked illustration, we turn to ΔTm data collected for Serine/threonine-protein kinase RIO2 (Homo sapiens) (UniProt Q9BVS4).
value_type: ΔTm (°C)

# compound, units_label, readout_value
data = [
    ("Cc1cncc2cccc(S(=O)(=O)N3CCCNC[C@@H]3C)c12", "°C", 0.4),
    ("COc1cc(O)c2c(c1)oc(=O)c1c3cc(O)c(O)cc3oc21", "°C", 3.6),
    ("Cc1cc(C=C2C(=O)C=CC2=O)cc(C)c1O", "°C", 0.7),
    ("O=C1Nc2ccc(I)cc2/C1=C1/Nc2ccccc2/C1=N\\O", "°C", 2.5),
    ("O=C1Cc2c([nH]c3ccc([N+](=O)[O-])cc23)-c2ccccc2N1", "°C", 1.3),
    ("O=Nc1c(-c2c(O)[nH]c3ccccc23)[nH]c2ccccc12", "°C", 2.6),
    ("O=c1c(-c2ccc(O)cc2)coc2cc(O)cc(O)c12", "°C", 0.6),
    ("COc1ccc(COc2ccc(Cc3cnc(N)nc3N)cc2OC)cc1", "°C", 0.2),
    ("Cn1cc(C2=C(c3cn(CCCSC(=N)N)c4ccccc34)C(=O)NC2=O)c2ccccc21", "°C", 3.1),
    ("CCOC(=O)c1cnc2oc3ccc(O)cc3c2c1-c1ccccc1", "°C", 1.2),
    ("COC(=O)[C@]1(O)C[C@@H]2O[C@@]1(C)n1c3ccccc3c3c4c(c5c6ccccc6n2c5c31)C(=O)NC4 (single isomer, unassigned)", "°C", 1.4),
    ("O=C(Nc1cccc(Nc2nccc(Nc3cccc(C(F)(F)F)c3)n2)c1)C1CC1", "°C", 3.7),
    ("Nc1nccc(-c2c(-c3ccc(F)cc3)ncn2C2CCNCC2)n1", "°C", 0.2),
    ("CC[C@H](CO)Nc1nc(NCc2ccccc2)c2ncn(C(C)C)c2n1", "°C", 0),
    ("O=C1NC(=O)C(c2cn(CCCn3ccnc3)c3ccccc23)=C1Nc1ccccc1", "°C", 6.1),
    ("CN(C)c1ccc(CC2C(=O)Nc3ccccc32)cc1 (stereo not given)", "°C", 0.9),
    ("COc1ccc(S(=O)(=O)N(CCO)c2ccccc2CN(C)C/C=C/c2ccc(Cl)cc2)cc1", "°C", -0.4),
    ("O=C1Cc2c([nH]c3ccc(Br)cc23)-c2ccccc2N1", "°C", 1.8),
    ("CSc1nc(-c2ccc(F)cc2)c(-c2ccnc(NC(C)c3ccccc3)c2)[nH]1 (racemic)", "°C", 0),
    ("Cn1cc(/C=C2/C(=O)Nc3ccc(S(N)(=O)=O)cc32)c2ccccc21", "°C", 5),
]

Source listed as ChEMBL document CHEMBL1145498.
